All values here come from ChEMBL document CHEMBL3784917.

- Tgt: Lysine-specific demethylase 4A (Homo sapiens)
- Sequence (O75164 whole entry): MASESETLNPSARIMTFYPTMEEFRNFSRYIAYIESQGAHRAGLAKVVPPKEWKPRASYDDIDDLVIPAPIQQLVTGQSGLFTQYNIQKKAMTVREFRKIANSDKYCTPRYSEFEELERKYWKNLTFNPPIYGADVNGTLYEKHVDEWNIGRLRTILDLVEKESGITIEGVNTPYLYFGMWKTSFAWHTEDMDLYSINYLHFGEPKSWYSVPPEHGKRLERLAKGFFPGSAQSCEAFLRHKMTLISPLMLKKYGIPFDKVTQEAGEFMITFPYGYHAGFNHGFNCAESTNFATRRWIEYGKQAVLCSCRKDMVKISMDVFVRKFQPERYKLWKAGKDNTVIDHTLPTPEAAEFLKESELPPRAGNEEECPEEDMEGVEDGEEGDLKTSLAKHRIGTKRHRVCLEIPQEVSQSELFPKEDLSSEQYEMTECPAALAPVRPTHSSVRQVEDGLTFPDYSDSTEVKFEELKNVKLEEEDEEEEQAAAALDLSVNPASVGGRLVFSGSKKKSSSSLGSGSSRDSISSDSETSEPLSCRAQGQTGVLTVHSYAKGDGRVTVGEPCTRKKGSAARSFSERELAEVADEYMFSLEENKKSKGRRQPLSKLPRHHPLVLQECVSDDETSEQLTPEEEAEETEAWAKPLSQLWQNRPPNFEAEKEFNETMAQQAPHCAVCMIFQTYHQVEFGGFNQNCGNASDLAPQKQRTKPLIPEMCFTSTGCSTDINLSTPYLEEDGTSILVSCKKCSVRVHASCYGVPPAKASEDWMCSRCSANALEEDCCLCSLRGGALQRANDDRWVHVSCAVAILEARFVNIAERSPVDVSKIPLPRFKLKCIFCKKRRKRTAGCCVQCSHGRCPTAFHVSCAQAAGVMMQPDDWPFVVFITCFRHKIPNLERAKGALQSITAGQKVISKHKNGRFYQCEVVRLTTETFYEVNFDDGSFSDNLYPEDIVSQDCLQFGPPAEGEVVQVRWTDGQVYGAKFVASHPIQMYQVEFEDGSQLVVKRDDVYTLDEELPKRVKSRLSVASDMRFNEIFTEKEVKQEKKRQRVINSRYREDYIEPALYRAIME
- Experimental Details: biochemical
Parameter: pKi
Give only the number. pKi is defined as minus log10 of concentration in molar units.

Specify pKi for CCCCCC[n+]1ccc(/C=C/c2ccc(N(C)C)cc2)cc1 and stop.
6.38

###

- Tgt: Lysine-specific demethylase 4C (Homo sapiens)
- Sequence (Q9H3R0 whole entry): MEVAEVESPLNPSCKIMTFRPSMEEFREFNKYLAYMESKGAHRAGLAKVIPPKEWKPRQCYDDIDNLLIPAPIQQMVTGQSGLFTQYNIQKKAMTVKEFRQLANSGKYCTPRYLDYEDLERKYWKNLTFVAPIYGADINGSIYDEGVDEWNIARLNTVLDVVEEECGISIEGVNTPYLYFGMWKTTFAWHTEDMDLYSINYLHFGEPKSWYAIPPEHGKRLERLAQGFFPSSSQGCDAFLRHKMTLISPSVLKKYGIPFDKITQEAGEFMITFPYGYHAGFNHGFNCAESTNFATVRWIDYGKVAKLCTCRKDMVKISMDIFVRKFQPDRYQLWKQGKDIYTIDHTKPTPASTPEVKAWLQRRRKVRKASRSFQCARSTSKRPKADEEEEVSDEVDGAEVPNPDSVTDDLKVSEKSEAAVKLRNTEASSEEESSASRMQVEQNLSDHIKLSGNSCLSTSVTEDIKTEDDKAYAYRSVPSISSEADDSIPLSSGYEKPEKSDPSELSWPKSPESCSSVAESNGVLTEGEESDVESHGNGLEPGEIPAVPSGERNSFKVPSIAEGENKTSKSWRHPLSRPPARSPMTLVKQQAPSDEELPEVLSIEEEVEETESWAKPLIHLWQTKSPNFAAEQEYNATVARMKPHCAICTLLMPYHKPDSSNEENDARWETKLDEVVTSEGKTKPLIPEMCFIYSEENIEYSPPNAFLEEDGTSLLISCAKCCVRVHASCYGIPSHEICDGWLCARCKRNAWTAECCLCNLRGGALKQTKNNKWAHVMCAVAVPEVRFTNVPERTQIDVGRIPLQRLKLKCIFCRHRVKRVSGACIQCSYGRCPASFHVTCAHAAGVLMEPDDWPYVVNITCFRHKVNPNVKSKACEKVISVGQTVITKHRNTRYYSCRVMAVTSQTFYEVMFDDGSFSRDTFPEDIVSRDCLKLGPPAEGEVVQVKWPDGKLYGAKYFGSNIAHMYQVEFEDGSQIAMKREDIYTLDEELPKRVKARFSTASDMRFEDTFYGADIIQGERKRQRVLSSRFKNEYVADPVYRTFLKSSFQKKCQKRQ
- Experimental Details: Inhibition of KDM4C (unknown origin) preincubated for 15 mins followed by histone substrate addition measured after 1 hr by alphascreen assay
Parameter: IC50 (µM)
Field format: number, assumed µM, no unit text.

For the molecule Cc1ccsc1C(NC(=O)c1ccccc1)c1cc(Cl)c2cccnc2c1O (racemic) , give its measured IC50 value.
5
